Value source: patent US10442759B2

# System: ARE (HepG2-ARE-C8 cells)
# measurement.notes: ARE luciferase reporter assay
# Type: cell-based
# assay.setup: 10 μmol/L, HepG2-ARE-C8 cells, 12 hrs
value.type: Luciferase reporter activity (fold of induction)

The reported value for "CC(=O)Nc1ccc(S(=O)(=O)N(CC(=O)O)c2ccc(Oc3ccccc3CC(=O)O)c3ccccc23)cc1" in terms of Luciferase reporter activity (fold of induction) is 1.03 fold of induction

Record CC(=O)Nc1ccc(C(Oc2ccc(N(CC(=O)O)S(=O)(=O)c3c(C)cc(C)cc3C)c3ccccc23)C(=O)O)cc1 (stereo not drawn) , field Luciferase reporter activity (fold of induction): 3.23 fold of induction

Documented Luciferase reporter activity (fold of induction) of "Cc1cc(C)c(S(=O)(=O)N(CC(=O)O)c2ccc(Oc3ccccc3CC(=O)O)c3ccccc23)c(C)c1" : 1.31 fold of induction

The measured Luciferase reporter activity (fold of induction) associated with CCOc1ccc(C(Oc2ccc(N(CC(=O)O)S(=O)(=O)c3c(C)cc(C)cc3C)c3ccccc23)C(=O)O)cc1 (stereo not drawn) reads 3.92 fold of induction

Looking up COc1ccc(C(Oc2ccc(N(Cc3nn[nH]n3)S(=O)(=O)c3c(C)cc(C)cc3C)c3ccccc23)C(=O)O)cc1 (stereo not drawn) , I found its Luciferase reporter activity (fold of induction) recorded as 2.58 fold of induction

Reported Luciferase reporter activity (fold of induction) ( "COc1ccc(S(=O)(=O)N(CC(=O)O)c2ccc(Oc3ccccc3CC(=O)O)c3ccccc23)cc1" ) = 1.07 fold of induction

For record "COc1ccc(S(=O)(=O)N(CC(=O)O)c2ccc(Oc3ccccc3CC(=O)O)c3ccccc23)cc1OC" the listed Luciferase reporter activity (fold of induction) is 1.10 fold of induction

The compound "Cc1cc(C)c(S(=O)(=O)N(Cc2nn[nH]n2)c2ccc(Oc3ccccc3CC(=O)O)c3ccccc23)c(C)c1" showed Luciferase reporter activity (fold of induction) equal to 1.36 fold of induction

// recorded Luciferase reporter activity (fold of induction) for COc1cc(OC)c(S(=O)(=O)N(CC(=O)O)c2ccc(OC(C(=O)O)c3ccccc3)c3ccccc23)c(OC)c1 (stereo not drawn) : 1.09 fold of induction

* * *

Give measured Luciferase reporter activity (fold of induction) for each item. Keep answers brief.
# Tested on: ARE (HepG2-ARE-C8 cells)
# measurement.notes: ARE luciferase reporter assay
# Type: cell-based
# assay.setup: 10 μmol/L, HepG2-ARE-C8 cells, 12 hrs

Lab note: measured Luciferase reporter activity (fold of induction) of CC(C)(C)c1ccc(S(=O)(=O)N(CC(=O)O)c2ccc(OC(C(=O)O)c3ccccc3)c3ccccc23)cc1 (stereo not drawn) was 1.13 fold of induction

Lab note: measured Luciferase reporter activity (fold of induction) of COc1cc(OC)c(S(=O)(=O)N(CC(=O)O)c2ccc(OC(C(=O)O)c3ccc(OC(C)C)cc3)c3ccccc23)c(OC)c1 (stereo not drawn) was 2.07 fold of induction

Briefly, Luciferase reporter activity (fold of induction) measured for COc1cc(OC)c(S(=O)(=O)N(CC(=O)O)c2ccc(OC(C(=O)O)c3ccc(F)cc3)c3ccccc23)c(OC)c1 (stereo not drawn) : 1.57 fold of induction

* * *

# test.target: Keap1-Nrf2 protein-protein interaction (Keap1 Kelch domain protein, FITC-9mer Nrf2 polypeptide probe) (Homo sapiens (Human), UniProt Q14145)
# Sequence (Q14145 321-609): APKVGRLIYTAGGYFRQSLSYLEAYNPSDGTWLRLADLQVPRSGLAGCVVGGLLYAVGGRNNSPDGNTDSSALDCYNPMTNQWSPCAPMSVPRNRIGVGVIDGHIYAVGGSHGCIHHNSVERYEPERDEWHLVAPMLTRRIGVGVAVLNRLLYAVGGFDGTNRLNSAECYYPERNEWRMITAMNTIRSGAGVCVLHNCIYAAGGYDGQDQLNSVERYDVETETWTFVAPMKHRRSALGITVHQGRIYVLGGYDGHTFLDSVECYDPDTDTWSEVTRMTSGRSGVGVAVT
# measurement.notes: Fluorescence polarization-based Keap1-Nrf2 protein-protein interaction inhibition experiment (FP experiment)
# assay.setup: FP experiment, Keap1 Kelch domain, FITC-9mer Nrf2 probe
pIC50: −log10 of the molar value.
Class Y: pIC50 at least 6. Class N: pIC50 below 6.

Request: Could you tell me if the measured pIC50 of "COc1ccc(S(=O)(=O)N(CC(=O)O)c2ccc(Oc3ccccc3CC(=O)O)c3ccccc23)cc1" reaches 6 or more?
Result: N

Request: Assess whether reported pIC50 for "O=C(O)Cc1ccccc1Oc1ccc(N(CC(=O)O)S(=O)(=O)c2ccc(C(F)(F)F)cc2)c2ccccc12" sits at 6 or higher.
Result: N

Request: Does the compound COc1cc(OC)c(S(=O)(=O)N(CC(=O)O)c2ccc(OC(C(=O)O)c3ccc(OC(C)C)cc3)c3ccccc23)c(OC)c1 (stereo not shown) have recorded pIC50 that is 6 or more?
Result: Y

Request: Hi team, for "COc1ccc(S(=O)(=O)N(CC(=O)O)c2ccc(Oc3ccccc3CC(=O)O)c3ccccc23)cc1OC" , is the recorded pIC50 at or above 6?
Result: N

Request: Check the entry COc1cc(OC)c(S(=O)(=O)N(CC(=O)O)c2ccc(OC(C(=O)O)c3ccccc3)c3ccccc23)c(OC)c1 (stereo not shown) : does pIC50 equal or exceed 6?
Result: Y
